Test system: L929 cells
Protocol Notes: CT50 cytotoxicity in L929 cells
Condition Parameters: pH 7 phosphate; Table 4
Kindly apply the following: MET if CT50 L929 cells is less than 0.2 mM, NOT MET in every other case.

Solved entries (count: 4):
• COCCN1C(=O)C(C)(C)N(Cl)C1(C)C [Compound 39-01] = MET
• COCCOCCOCC[N+](C)(C)CCN1CC(C)(C)N(Cl)C1=O [Compound 39-110] = NOT MET
• COCCOCCN1C(=O)C(C)(C)N(Cl)C1(C)C [Compound 39-112] = MET
• CC1(C)C(=O)N(CC(O)CO)C(C)(C)N1Cl (centres unmarked) [Compound 39-27] = MET

Consider the additional compound presented here.
Regarding COCCOCCOCCOCCN1C(=O)C(C)(C)N(Cl)C1(C)C [Compound 39-12] , kindly confirm whether its CT50 L929 cells is beneath 0.2 mM. MET

* * *

System: L929 cells
Protocol Notes: CT50 cytotoxicity in L929 cells
Condition Parameters: pH 7 phosphate; Table 3
Endpoint Name: CT50 L929 cells
Please give the number followed by its unit.

Past entries and their recorded results:
• CC(C)(CCS(=O)(=O)CC(O)CO)N(Cl)Cl (stereo not drawn) [Compound 38-27] = 0.13 mM
• COCC[N+](C)(C)CCC(C)(C)N(Cl)Cl.[Cl-] [Compound 38-43] = 1.2 mM
• CC(C)(CCS(=O)(=O)CCOCCOCCO)N(Cl)Cl [Compound 38-85] = 0.04 mM
• COCCC[N+](C)(C)CCC(C)(C)N(Cl)Cl [Compound 38-137] = 1.62 mM
• CCOCCOCCOCCS(=O)(=O)CCC(C)(C)N(Cl)Cl [Compound 38-89] = 0.06 mM

So what's the measured CT50 L929 cells for this one? COCCOCCOCCS(=O)(=O)CC(C)(C)N(Cl)Cl [Compound 38-01] 0.06 mM

// CT50 L929 cells lookup, key: CC(C)(CCS(=O)(=O)CCOCCS(=O)(=O)O)N(Cl)Cl [Compound 38-83] 1.74 mM

Look up CT50 L929 cells: CCCCOCC[N+](C)(C)CCC(C)(C)N(Cl)Cl.[Cl-] [Compound 38-133] 0.26 mM

Please report the recorded CT50 L929 cells for CC(C)(CC[N+](C)(C)CCCO)N(Cl)Cl [Compound 38-151] . 0.12 mM

* * *

Tested on: L929 cells
Protocol Notes: CT50 cytotoxicity in L929 cells
Condition Parameters: pH 7 phosphate; Table 4
# CT50 L929 cells per entry
Write it as a number; the unit mM goes unstated.

Study these solved cases before continuing.
• CC1(C)CN(CCO)C(=O)C(C)(C)N1Cl = 0.1
• COCCOCCOCCOCCOCCOCCOCCOCCOCCOCCOCCOCCOCCOCCOCCOCCOCCOCCOCCOCCOCCOCCOCCOCCOCCOCCOCCOCCOCCOCCOCCOCCOCCOCCOCCOCCOCCOCCOCCN1C(=O)C(C)(C)N(Cl)C1(C)C = 11.3

Value wanted: CT50 L929 cells (L929 cells) of entry CN1CC(C)(CO)N(Cl)C1=O (stereo not shown) 0.33

Please state recorded CT50 L929 cells (tested on L929 cells) of COCCOCCOCC[N+]1(C)CC(C)(C)N(Cl)C(C)(C)C1.[Cl-] 0.24

* * *

Below is a list of entries, each paired with its recorded MFC value.
System: C. albicans 10231
Protocol Notes: MBC/MFC against C. albicans 10231
Format: cell-based
Condition Parameters: Candida albicans, pH 7 phosphate, Table 3

Some solved entries appear below for comparison.
- COCCC[N+](C)(C)CCC(C)(C)N(Cl)Cl: > 1020 µg/mL
- CC(C)(C)OCCOCCOCCS(=O)(=O)CCC(C)(C)N(Cl)Cl: 128 µg/mL

If you can, please state the reported MFC value of CC(C)(CC[N+](C)(C)CCCO)N(Cl)Cl . > 1020 µg/mL

What value of MFC has been recorded for this entry: CC(=O)OCCOCCOCCS(=O)(=O)CCC(C)(C)N(Cl)Cl 512 µg/mL

What value of MFC has been recorded for this entry: COCCOCCOCCS(=O)(=O)CC(C)(C)N(Cl)Cl > 512 µg/mL

Look up MFC for this compound: CCCCCCOCC[N+](C)(C)CCC(C)(C)N(Cl)Cl.Cc1ccc(S(=O)(=O)[O-])cc1 > 1020 µg/mL

So what does the record say about MFC for COCC[N+](C)(C)CCC(C)(C)N(Cl)Cl.[Cl-] ? > 2050 µg/mL

Value lookup for MFC; key = CC(=O)OCC(CS(=O)(=O)CCC(C)(C)N(Cl)Cl)OC(C)=O (stereo not drawn) 128 µg/mL

* * *

Test system: L929 cells
Protocol Notes: CT50 cytotoxicity in L929 cells
Condition Parameters: pH 7 phosphate; Table 3
Endpoint Name: CT50 L929 cells (mM)
Record the value in mM, omitting the unit from your answer.

Example results:
* CCCCCCOCC[N+](C)(C)CCC(C)(C)N(Cl)Cl.Cc1ccc(S(=O)(=O)[O-])cc1 | 0.08
* COCCOCCOCCOCCS(=O)(=O)CCC(C)(C)N(Cl)Cl | 0.039

Please report the recorded CT50 L929 cells for CC(C)(CCS(=O)(=O)CCOCCOCCS(=O)(=O)O)N(Cl)Cl . 2.13

Given COCCOCCOCC[N+](C)(C)CCC(C)(C)N(Cl)Cl [Compound 38-45, 4-methylbenzenesulfonate] , state its recorded CT50 L929 cells. 3.2

* * *

Test system: S. aureus 29213
Protocol Notes: MBC/MFC against S. aureus 29213
Type: cell-based
Condition Parameters: Staphylococcus aureus, pH 7 phosphate, Table 3
Endpoint Name: MBC (µg/mL)
Provide the reading as a plain figure in µg/mL.

Sample records with MBC:
- CC(C)(CCS(=O)(=O)C(CO)C(O)CO)N(Cl)Cl (stereo not drawn) [Compound 38-145]: 16
- CCOCCOCCOCCS(=O)(=O)CCC(C)(C)N(Cl)Cl [Compound 38-89]: 128
- COCCOCCOCCOCCS(=O)(=O)CCC(C)(C)N(Cl)Cl [Compound 38-147]: 128
- CC(=O)OCC(O)CS(=O)(=O)CCC(C)(C)N(Cl)Cl (stereo not drawn) [Compound 38-49]: 32
- CC(C)(C)OCCOCCOCCS(=O)(=O)CCC(C)(C)N(Cl)Cl [Compound 38-91]: 128

Requested read-out: MBC. Entry: CC(=O)OCCOCCOCCS(=O)(=O)CCC(C)(C)N(Cl)Cl [Compound 38-87] 128

MBC for COCCOCCOCC[N+](C)(C)CCC(C)(C)N(Cl)Cl [Compound 38-45, 4-methylbenzenesulfonate] ? 1020

# get_value(readout='MBC', item= CC(C)(CCS(=O)(=O)CCOCCS(=O)(=O)O)N(Cl)Cl [Compound 38-83] ) 256

Given the compound CCCCCCOCC[N+](C)(C)CCC(C)(C)N(Cl)Cl.Cc1ccc(S(=O)(=O)[O-])cc1 [Compound 38-135] , what is its reported MBC? 512

Give the measured MBC of COCCOCCOCCS(=O)(=O)CC(C)(C)N(Cl)Cl [Compound 38-01] . 256

Would you kindly share the measured MBC for COCC[N+](C)(C)CCC(C)(C)N(Cl)Cl.[Cl-] [Compound 38-43] ? 512

I would be grateful if you could share the reported MBC for CC(C)(CCS(=O)(=O)CC(O)CO)N(Cl)Cl (stereo not drawn) [Compound 38-27] . 4

Any idea what MBC was measured for CC(C)(CCS(=O)(=O)CCOCCOCCS(=O)(=O)O)N(Cl)Cl [Compound 38-81] ? 256

Value lookup for MBC; key = CO[C@H]1O[C@H](CS(=O)(=O)CCC(C)(C)N(Cl)Cl)[C@@H](O)[C@H](O)[C@H]1O [Compound 38-141] 256

Returns the measured MBC for the input compound. Input: CC(C)(CCS(=O)(=O)CC(O)C(O)CO)N(Cl)Cl (stereo not drawn) [Compound 38-29] 32

Endpoint output: MBC of CC(C)(CCS(=O)(=O)CCO)N(Cl)Cl [Compound 38-25] . Value? 16

Give the measured MBC of CC(C)(CCS(=O)(=O)CCOCCOCCO)N(Cl)Cl [Compound 38-85] . 64

Could you tell me which MBC is on file for CC(=O)OCC(CS(=O)(=O)CCC(C)(C)N(Cl)Cl)OC(C)=O (stereo not drawn) [Compound 38-51] ? 128

State the recorded MBC for this entry: CCCCOCC[N+](C)(C)CCC(C)(C)N(Cl)Cl.[Cl-] [Compound 38-133] 128

* * *

# CT50 L929 cells annotations
Tested on: L929 cells
Protocol Notes: CT50 cytotoxicity in L929 cells
Condition Parameters: pH 7 phosphate; Table 4
Answer with a number only, understood to be in mM.

- COCCOCCOCCCN1C(=O)C(C)(C)N(Cl)C1(C)C: 0.24
- CC1(C)C(=O)N(CCCCO)C(C)(C)N1Cl: 2.21
- COCCOCCOCCN1C(=O)C(C)(C)N(Cl)C1(C)C: 0.14
- COCCOCCOCCOCCOCCOCCOCCOCCOCCOCCOCCOCCOCCOCCN1C(=O)C(C)(C)N(Cl)C1(C)C: 4.1

Please look up its CT50 L929 cells: CC1(C)C(CO)OC(=O)N1Cl (centres unmarked) 0.14
